System: HepG2
method_summary: Cytotoxicity against human HepG2 cells assessed as reduction in cell viability after 24 hrs by MTT assay
Type: functional, cell-based
measurement_context: HepG2, 24 h
// pIC50 lookup, one value per entry
API: returns pIC50 as number; meaning -log10 of concentration in mol/L.

These recorded examples may help you get a feel for the data.
| structure_smiles_string | system_under_test | value |
| --- | --- | --- |
| CN1C/C(=C\c2ccc(Cl)cc2)C(=O)/C(=C/c2ccc(C#N)cc2)C1 | HepG2 | 5.23 |
| COc1cc(/C=C2\CN(C)C/C(=C\c3ccccc3F)C2=O)cc(OC)c1OC | HepG2 | 6.17 |
| CN1C/C(=C\c2ccc(C#N)cc2)C(=O)/C(=C/c2ccc(Cl)cc2Cl)C1 | HepG2 | 5.20 |

Task: Report measured pIC50; entry is COc1cc(/C=C2\CN(C)C/C(=C\c3ccc(F)cc3)C2=O)cc(OC)c1OC
Result: 5.13

Task: Supply reported pIC50 belonging to this molecule: CN1C/C(=C\c2ccc(C#N)cc2)C(=O)/C(=C/c2ccc(C(F)(F)F)cc2)C1
Result: 6.01

Task: Quote pIC50 reported for CN1C/C(=C\c2ccc(Br)cc2)C(=O)/C(=C/c2ccc(C#N)cc2)C1 please.
Result: 5.32

Task: Read the entry CN1C/C(=C\c2cccc([N+](=O)[O-])c2)C(=O)/C(=C/c2ccccc2F)C1 and write its reported pIC50.
Result: 5.97

Task: State its pIC50 for this molecule: CN1C/C(=C\c2cccc([N+](=O)[O-])c2)C(=O)/C(=C/c2ccc(Cl)cc2Cl)C1
Result: 5.32

Task: In one line, give reported pIC50 of the entry COc1cc(/C=C2\CN(C)C/C(=C\c3ccc(C#N)cc3)C2=O)cc(OC)c1OC .
Result: 5.94

Where do the numbers come from? From ChEMBL document CHEMBL4145528.
